The measurements presented in this section are drawn from the supplement of paper PMC12042874.

Test: amyloid nucleation score (Sup35N fusion, yeast selection) (log enrichment); library NNK3; higher = more nucleation; inactive = no reads after selection;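 further: zero at mode of non-aggregating sequences after 7 days selection at 30°C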
observationType: amyloid nucleation score

Please review the entries below; each comes with its answer.
# substance, amyloid nucleation score
data = [
    ("LVCGPI", "inactive"),
    ("NKDWREVCSKLNLGSCPTPE", "inactive"),
    ("IFGFDYIAPFFCVTFGIRRV", "inactive"),
    ("GLPLEWDDSWNVKIVLLCWS", "inactive"),
    ("GVIILSLTAKCQAMDSVRTL", 0.841),
]

Inquiry: Tell me its amyloid nucleation score given CSIWLCNKNVQIAN as the entry.
Reply text: inactive

Inquiry: Supply reported amyloid nucleation score belonging to this substance: SFSYDTRVDVSAILQSQNSL
Reply text: inactive

Inquiry: For KPKELSAHLNATM , write its amyloid nucleation score.
Reply text: inactive

Inquiry: Read off the recorded amyloid nucleation score for IISCYTNKMIVVTWCYPLRR
Reply text: 0.116

Inquiry: Fill in amyloid nucleation score for record SWPVCWDHIWQSWGLTTSAV
Reply text: inactive

Inquiry: Input LIVGKNNVPMFTSNKFLVFS , output reported amyloid nucleation score.
Reply text: -0.508

Inquiry: Write down amyloid nucleation score measured for item LYINYLCWMNKYTACLPLHL
Reply text: inactive

Inquiry: In one line, give reported amyloid nucleation score of the entry LCTESFIISR .
Reply text: inactive

Inquiry: Quote amyloid nucleation score reported for MRMTTYSGIRVGIIERIMIN please.
Reply text: inactive

Inquiry: Please give measured amyloid nucleation score of the following entry: NSCTDSGPMGTSFSCTLGF
Reply text: inactive

Inquiry: Identify the reported amyloid nucleation score for the following entry. YYMRDCSYIHEFGTGVASDR
Reply text: inactive

Inquiry: Please give the documented amyloid nucleation score of IAHWAWGMELIIYQIPNHFR
Reply text: 0.407

---

Test: amyloid nucleation score (Sup35N fusion, yeast selection) (log enrichment); library NNK2; higher = more nucleation; inactive = no reads after selection
Please use T whenever amyloid nucleation score is not below -0.005, and F whenever it is.

These solved cases illustrate the format of a correct answer.
# substance, group
rows = [
    ("SLACGNEKRFVMILSHI", "T"),
    ("RLNLGYYKEAVYN", "F"),
    ("WALTHVSLYRFGER", "T"),
    ("VGGLDKNHMVLDCLDKGCGM", "T"),
    ("HLEPRIPLWMPVFGVSKVRS", "T"),
    ("CTSLLI", "F"),
]

Now examine the next entry.
Inquiry: Identify whether the reported amyloid nucleation score of the following substance is -0.005 or greater: KYTGNFGAVSL
Reply text: T

---

Listed here: items and their measured amyloid nucleation score.
Experiment: amyloid nucleation score (Sup35N fusion, yeast selection) (log enrichment); library NNK2; higher = more nucleation; inactive = no reads after selection
Quick one: just the number, no unit, thanks!

# substance, amyloid nucleation score
measured = [
    ("WVELVCPYSTYLLSFIASLS", 0.278),
    ("GMFLWLFLVPRYHPTSTELG", 0.219),
    ("SKVFCTIFAWVVVE", 7.04),
    ("FCAMGGPSRGLVNRWFGS", -0.746),
    ("LQSCAGTFTCDCVVGRNYGR", 0.31),
    ("NSYFGRAFNVSMPYKLRWKF", -1.41),
    ("FSVMMLMAVLMGTKIGVTEN", 4.19),
    ("TYFARCFDNWTVNWCVARVC", 0.614),
    ("AINWYYMHISMLECPAKNGS", -0.876),
    ("FCNFGFIRNRSDDIGVSRGV", -1.07),
]

Inquiry: // fetch amyloid nucleation score given entry GTTDTCSAV
Reply text: 3.2

Inquiry: Return reported amyloid nucleation score. Input substance: PKPLVGMLCCHSMTRGKVTL
Reply text: 3.28

Inquiry: Quick one: give measured amyloid nucleation score for DNVGYYNINKDLKFIVGSSH
Reply text: 0.274

Inquiry: Return amyloid nucleation score (reported value) for this substance: LGQSCTYQCQQLCSLSHNRV
Reply text: -0.214

Inquiry: Item LKIFLLIVVGDDFMKSKYCP : provide amyloid nucleation score
Reply text: -0.612

Inquiry: Report measured amyloid nucleation score; entry is FWRSMTYVRF
Reply text: -0.526

Inquiry: Please give the documented amyloid nucleation score of VAHKSPFIAHFTWVILAYGM
Reply text: 0.211

Inquiry: Write down amyloid nucleation score measured for item HGLVGESVRSYQTQRQVTMA
Reply text: 0.544

---

Experiment: amyloid nucleation score (Sup35N fusion, yeast selection) (log enrichment); library NNK3; higher = more nucleation; inactive = no reads after selection
observationType: amyloid nucleation score

Answered examples (5):
# substance, result
records = [
    ("MMFDYLLLRGHNAQIQLWWY", "inactive"),
    ("GCYIVM", "inactive"),
    ("WILLCIRRRMFCRGMCTINN", "inactive"),
    ("GIVILLNYHPIRLF", 2.2),
    ("VYFRVFCFVSLCGVY", -0.548),
]

Inquiry: Tell me its amyloid nucleation score given RLLVGFIWSWLGISYFTRFL as the entry.
Reply text: inactive

Inquiry: Query amyloid nucleation score for WNFGFGVWRFTAGG
Reply text: 1.33

Inquiry: Answer with reported amyloid nucleation score of CVEIVGMESASCVVMNPLVC
Reply text: inactive

Inquiry: Return value of amyloid nucleation score for input SYYMTKLVFLCPLW , no commentary.
Reply text: inactive

---

Experiment: amyloid nucleation score (Sup35N fusion, yeast selection) (log enrichment); library NNK2; higher = more nucleation; inactive = no reads after selection
amyloid nucleation score values for the substances below.
Please reply with the number alone, leaving off any unit.

The examples below pair each entry with its known result.
# substance, amyloid nucleation score
records = [
    ("WSQRMLRSQEVPCSWWEIVT", 0.905),
    ("DYNFIQRNNCGALCKYAKTL", -1.55),
    ("MYREGSTVGLYMFPYCKDQS", 0.237),
    ("LNLFFLCGYPYYRNVGCMGH", 7.2),
    ("LKARIACADYIRSGIILLCS", 2.2),
    ("MSLHPMRLHQWRPESIVLTE", 0.365),
    ("VHDRLRLGWGAYGYPFGVLM", 0.027),
    ("VAGIVYLGARW", 5.43),
    ("ALRTPCYSAMHLGAWVFVCF", 3.31),
    ("GKSEVGLGVGEHMQSEHGGS", -0.055),
]

Inquiry: Tell us which amyloid nucleation score value is on record for GFKYVRSRNSGALYKYSS
Reply text: -0.962

Inquiry: Output amyloid nucleation score of RSDVSLVYNLWALWWAR
Reply text: 0.906

Inquiry: Using the record for NIIFLGVGSVFKNWRTTILS , state its measured amyloid nucleation score.
Reply text: 4.02

Inquiry: Supply amyloid nucleation score value. Item: TIFSNFGSMSLIGHGIEQVI
Reply text: -1.39

Inquiry: Determine its reported amyloid nucleation score: QSNSSRLHSCRGAIVICI
Reply text: 6.75

Inquiry: Supply amyloid nucleation score value. Item: HRHFCSLDGA
Reply text: 0.076

Inquiry: Fill in amyloid nucleation score for record LVWWLSNRV
Reply text: 2.41

Inquiry: Give amyloid nucleation score for the following substance: ADNVGS
Reply text: 3.71

Inquiry: Report amyloid nucleation score, nothing else, for this substance: YLACFTARL
Reply text: 3.91

Inquiry: // Input: STSQWYRVLVRVVCSPM . Output its amyloid nucleation score only.
Reply text: 0.331

Inquiry: State its amyloid nucleation score for this substance: ILQWEVSWLCKNHT
Reply text: 0.683

Inquiry: Specify reported amyloid nucleation score for the substance shown: HKWEAKMGPISVLFRCFGLD
Reply text: 1.09

Inquiry: Specify reported amyloid nucleation score for the substance shown: NGNVVADWI
Reply text: 0.809

---

Reported amyloid nucleation score is given for each of the following substances.
Test: amyloid nucleation score (Sup35N fusion, yeast selection) (log enrichment); library NNK2; higher = more nucleation; inactive = no reads after selection
Write no unit; give the number alone.

Some solved cases for reference:
# substance, amyloid nucleation score
records = [
    ("GDFDKDV", -0.188),
    ("NHSMRPNRTVSGMLTSIYYR", -0.533),
    ("LSYSVNWWPRSGWSYYVNEF", -0.176),
    ("RLLLEDASIVGLIITYYLMF", 0.085),
    ("QTRRIRYDWDAPQCGWVVTM", 3.82),
]

Inquiry: Name the recorded amyloid nucleation score of the item GIQGLRVWFAYMFPSVVLLC in your answer.
Reply text: -0.987

Inquiry: Tell us which amyloid nucleation score value is on record for SWKWYRS
Reply text: 0.157

Inquiry: Retrieve amyloid nucleation score measured for KYSAQIL and print it.
Reply text: 0.172

Inquiry: Provide amyloid nucleation score value for the following substance: HLFCTMHSQTLEDYIKSLVC
Reply text: -0.087

Inquiry: Specify measured amyloid nucleation score for FSMFMDIRRFMGSRWCV .
Reply text: 0.089

Inquiry: Supply recorded amyloid nucleation score for GTTWLTVLALVALSEISCRM here.
Reply text: 0.384

Inquiry: Using the record for NNRWFRRGLGLSLDWTDCLS , state its measured amyloid nucleation score.
Reply text: -0.492

Inquiry: Return amyloid nucleation score (reported value) for this substance: EWPMPWMFHRCSG
Reply text: -0.138

Inquiry: Look up and report measured amyloid nucleation score for this entry: QVWFYIVVMLVTLTGLGQVG
Reply text: 1.16

Inquiry: Quick one: give measured amyloid nucleation score for FWFMVCLIAG
Reply text: -0.223

Inquiry: Indicate the recorded amyloid nucleation score value for this substance: YPSCKGSMPVFYSFPGGENA
Reply text: 0.524
